System: T-47D breast
Test: NCI tumour cell line growth inhibition, 48 h
Observation Type: GI50

I would be grateful if you could provide GI50 for each of the following entries.
1. CN1CCN(c2ccc3nc(-c4ccc5nc(-c6ccc(OCCC(C)(C)C)cc6)[nH]c5c4)[nH]c3c2)CC1
2. NC(=O)c1cc(-c2ccc(F)cc2)cc(-c2ccncc2)c1N
3. Nc1nc(-c2ccccc2)nc(N)c1N=O
4. Fc1ccc(Nc2nc3nonc3nc2Nc2ccc(F)cc2)cc1

Result:
14.2 µM
> 25 µM
4.63 µM
0.221 µM

----------
Tested on: U251 CNS
Assay: NCI tumour cell line growth inhibition, 48 h
Observation Type: TGI (µM)
Answers are plain numbers, in µM.

Example entries and their recorded answers appear below.
Cc1cccc2c(=O)c3c(sc12)c(NCCNCCO)nc1ccccc13 : 3.09
O=C1CCCC/C1=C\c1ccc(Br)cc1 : 9.79
O=[N+]([O-])c1c(Br)sc(Br)c1[N+](=O)[O-] : 5.46
O=C(/C=C/c1cc([N+](=O)[O-])ccc1Cl)c1ccccc1 : 8.04

The record that follows has no TGI shown yet.
Task: Name the recorded TGI for Cc1cc(N(CCNc2ccnc3cc(Cl)ccc23)Cc2ccco2)nc(Cl)n1 .
Result: 3.01

----------
Exercise: for every item that follows, state its recorded TGI.
Test system: OVCAR-4 ovarian
Experiment: NCI tumour cell line growth inhibition, 48 h
Answers are plain numbers, in µM.

Example entries and their recorded answers appear below.
CN(CC(=O)N(Cc1ccc(C2CCCCC2)cc1)c1ccc(C(=O)O)c(O)c1)S(=O)(=O)c1c(F)c(F)c(F)c(F)c1F : 27.8
O=C(Cc1nc2ccccc2s1)Nc1cccc(C(F)(F)F)c1 : 30.3
O=C(Nc1ccc2ncnc(Nc3ccc(Oc4cccc(F)c4)c(Cl)c3)c2c1)c1ccc(CNCCO)cc1 : 4.81
Cc1c2cnccc2c(C)c2c1c1ccccc1n2CCCCCCNCc1ccccc1 : 1.25
CCOC(=O)C1OC(C2(C)OC3(OC4(C=CC3O)OC(C(C)C(=O)C(C)C(O)C(C)CC(C)c3c(Cl)cc(C)c(O)c3C(=O)O)C(C)CC4C)C(C)C2OC)CC1O (stereo not given) : 4.53

Task: Name the recorded TGI for COc1ccc2sc(-n3nc4ccccc4c3Nc3nc4ccc(OC)cc4s3)nc2c1 .
Result: 6.82

----------
Exercise: for every item that follows, state its recorded TGI.
Tested on: LXFL 529 NSCLC
Test: NCI tumour cell line growth inhibition, 48 h

O=C(CC1(O)C(=O)Nc2c(Cl)cc(Cl)cc21)c1cccc2ccccc12 (stereo not drawn) : 28.6 µM
CCCCCCCCCCCCCP(=O)(O)OCC : > 100 µM
Fc1ccccc1C1CC(c2ccc3ccccc3c2)=Nc2ccccc2S1 (stereo not drawn) : > 100 µM

I would be grateful if you could provide TGI for each of the following entries.
1. O=C(NP(=O)(N1CC1)N1CC1)c1cc(I)ccc1I
2. CC(=O)OC(CCC1(C)OC1COc1ccc(CCNC(=O)c2ccccc2)cc1)C(C)(C)OC(C)=O (stereo not drawn)

Result:
1. > 100 µM
2. 34.6 µM

----------
Tested on: NCI-H522 lung
Test: NCI tumour cell line growth inhibition, 48 h
Observation Type: TGI

Example entries and their recorded answers appear below.
CO/N=C(\C)COc1ccc2c(=O)c(-c3ccccc3)coc2c1 : 79 µM
CN(C)c1ccccc1CN1CCCN(Cc2ccccc2N(C)C)C1c1ccncc1 : 32.5 µM

I would be grateful if you could provide TGI for each of the following entries.
1. CCc1cccc(C(C)C)c1N1C(=O)C(=O)C(c2nc3ccccc3s2)C(=O)C1=O
2. O=C(Nc1ccccc1)NS(=O)(=O)c1ccc(-n2nc3c(c2-c2ccc(Cl)cc2)Cc2ccccc2-3)cc1
3. COc1ccc2oc(OC)c(CC=C(C)C)c(=O)c2c1C

Result:
1. 48.6 µM
2. 67.4 µM
3. > 100 µM

I would be grateful if you could provide TGI for each of the following entries.
1. CCCCCCCCCCCCCC[S+](C)C
2. O=CC[C@H]1CCc2ccccc2C12CCC(=O)CC2
3. NC1CC2NC3CCCCC3NC2CC1N (stereo unspecified)
4. COCOc1c(C(O[Si](C)(C)C(C)(C)C)c2cnc(Sc3ccccc3)n2C)ccc(OC)c1OC (stereo unspecified)

Result:
1. 4.33 µM
2. > 100 µM
3. 39.9 µM
4. 3.58 µM

I would be grateful if you could provide TGI for each of the following entries.
1. COc1ccc(-c2nc3ccccn3c2/C=C/C(=O)c2cc(OC)c(OC)c(OC)c2)cc1
2. Cc1cc(C)nc(SC(C)C(=O)N/N=C/c2ccc(OCc3ccccc3)cc2)n1 (stereo unspecified)

Result:
23.4 µM
> 100 µM
